Entries and their % to 002# OD (20 nM)
Biological target: T1, human TNFR2 (Novoprotein, Catalog No. C830) (human, UniProt P20333 23-257, limits assumed)
T1 construct: construct not described; also called TNFR2 protein
T1 sequence (looked up): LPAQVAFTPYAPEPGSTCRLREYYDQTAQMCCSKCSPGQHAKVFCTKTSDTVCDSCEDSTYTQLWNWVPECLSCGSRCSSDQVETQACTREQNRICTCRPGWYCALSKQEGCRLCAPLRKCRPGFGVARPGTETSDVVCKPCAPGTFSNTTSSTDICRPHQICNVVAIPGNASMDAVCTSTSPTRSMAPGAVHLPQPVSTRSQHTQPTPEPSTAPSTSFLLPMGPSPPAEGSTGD
Test: blocking ELISA, TNFα-biotin on coated human TNFR2; 002# OD / antibody OD x 100
observable: % to 002# OD (20 nM)

binder | observable | result
TNFR2 antibody #395 (antibody, V domains shown) VH: EVQLQESGPVLVQPSQSLSITCTVSGFSLTSYSVHWVRQSPGKGLEWLGVIWSDGGTDYSAAFISRLSISKDNSKSQVFFKMNSLQADDTAIYYCARNDDGGDYAMDYWGQGTTVTVSS VL: EIVLTQSPALMSASPGEKVTMTCSASSSVSYMYWYQQKPRSSPKPWIYLTSNLASGVPARFSGSGSGTSYSLTISSMEAEDAATYYCQQWSSNPLTFGAGTKLEIK | % to 002# OD (20 nM) | 178%
TNFR2 antibody #001 (antibody, V domains shown, also called antibody #1) VH: EVQLQESGGGLVQPGGSLNLSCAASGFAFSTYDLSWVRQTPEKRLEWVAYINNGGISTYYSDTVKGRFTISRDNAKNTLYLQMSSLKSEDTAMYYCVRGPFYGSANYFDYWGQGTTVTVSS VL: EIVMTQSPASLSLSVGETVTITCRTSESIYSNLPWYQQKQGKSPQLLVYDATKLAEGVPSRFSGSESGTQYSLKINSLQSEDFGTYYCQHFWVTPWTFGGGTKLEIK | % to 002# OD (20 nM) | 126%
TNFR2 antibody #352 (antibody, V domains shown) VH: EVQLQESGPGLVAPSQSLSITCTVSGFSLTSYGVHWVRQPPGKGLEWLVVIWSDGGTTYNSALKSRLSISKDNSKSQVFLKMNSLQTDDTAMYYCARHDDDGYYAMDYWGQGTTVTVSS VL: DIVLTQSPSLMSASPGEKVTMTCSASSSVGYMYWYQQKPRSSPKPWIYLTSNLASGVPARFSGSGSGTSYSLTISSMEVEDAATYYCQQWSSDPFTFGSGTKLEIK | % to 002# OD (20 nM) | 106%
TNFR2 antibody #219 (antibody, V domains shown) VH: EVQLQESGAELVRPGASVKLSCKASGYSFTNYWMNWVKQRPGQGLEWIGMIHPSDTETRLNQNFKDKATLTVDKSSSTSYMQLSSPTSEDSAVYYCARGEGLGAARSVSMDYWGQGTTVTVSS VL: DILMTQSPSSLSASLGDRVTISCRASQDISNYLNWYQQKPDGTVKVLIYYTAILHSGVPSRFSGSGSGTDYSLTISNLEQEDIATYFCQQGNTLPWTFGGGTKLEIK | % to 002# OD (20 nM) | 89%
TNFR2 antibody #309 (antibody, V domains shown) VH: EVQLQESGAELVKPGASVKLSCKASGYTFTSYWIHWVKLRPGQGFEWIGEINPNNGGTDYNEKFKRKATLTVDKSSSTAYMELSSLTSEDSAIYYCTIDSMITTTWFAYWGQGTTVTVSS VL: EIVMTQSQKLMSTVVGDRVSVTCKASQNVGTNVAWFQQKPGQSPKALINSASYRYSGVPDRFTGSGSGTDFTLTISSVQSEDLAEYFCQQYNSYPFTFGSGTKLEIK | % to 002# OD (20 nM) | 96.6%
TNFR2 antibody #226 (antibody, V domains shown) VH: EVQLQESGAELVRPGASVKLSCKASGYSFTNYWMNWVKQRPGQGLEWIGMIHPSDSETRLNQKFKDKATLTVDKSSSTAYMQLSSPTSEDSAVYYCARGEGLGAARSVSMDYWGQGTTVTVSS VL: DIQMTQSPSSLSASLGDRVTISCRASQDISNYLNWYQQKPDGTVKVLIYYTALLHSGVPSRFSGSGSGTDYSLTISNLEQEDIATYFCQQGNTLPWTFGGGTKLEIK | % to 002# OD (20 nM) | 105%
TNFR2 antibody #125 (antibody, V domains shown) VH: EVQLQESGGGLVQPGGSLNLSCAASGFAFSIYDLSWVRQTPEKRLEWVAYINNGGISTYYSDTVKGRFTISRDNAKNTLYLQMSSLKSEDTAMYYCVRGPFYGSANYFDYWGQGTTVTVSS VL: DIQMTQSPASLSLSVGETVTITCRASENIYSNLAWYQQKQGKSPQLLVYDATKLAEGVPSRFSGSESGTQYSLKINSLQSEDFGTYYCQHFWVTPWTFGGGTKLEIK | % to 002# OD (20 nM) | 154%
TNFR2 antibody #133 (antibody, V domains shown) VH: EVQLQESGAELVRSGASVKLSCTASGFNIKDYYIQWVKQRPEQGLEWIGWIDPESGNTKYAPKFQDKATMTADTSSNTAYLQLSGLTSEDSAVYYCNAYYDYDGSMDYWGQGTTVTVSS VL: DIVMTQSPLSLPVSLGDQASISCRSSQSLVHSNGNTYLHWYLQKPGQSPKLLIYKVSNRFSGVPDRFSGSGSGTDFTLKISRVETDDLGVYFCSQSTHVPTWTFGGGTKLEIK | % to 002# OD (20 nM) | 110%
TNFR2 antibody #365 (antibody, V domains shown) VH: EVQLQESGPGLVQPSQSLSITCTVSGFSLTSYGVHWVRQSPGKGLEWLGLIWSDGSPDYSAAFISRLSINKDNSKSQVFFKMNSLQADDTAIYYCARNDDGGDYVMDYWGQGTTVTVSS VL: EIVLTQSPALMSASPGEKVTMTCSASSSVSYMYWYQQKPRSSPKPWIYLTSNLASGVPARFSGSGSGTSYSLTISSMEAEDAATYYCQQWTSNPLTFGAGTKLEIK | % to 002# OD (20 nM) | 120%
TNFR2 antibody #224 (antibody, V domains shown) VH: EVQLQESGPEIVKPGASVKLSCTASGFNNKDIYMHWVKQRPEQGLEWIGRIDPATGNTKHDPKFQDKATLSSDTSSNTAYLQFSSLTSEDTAVYYCAHSPYGDFGAMDYWGQGTTVTVSS VL: DIQMTQSPAIMSASLGERVTMTCTASSSVSSNYLHWYQQKPGSSPKLWIYSTSNLPSGVPARFSGSGSGTSYSLTISSMEAEDAATYYCHQYHRSPWTFGGGTKLEIK | % to 002# OD (20 nM) | 277%
TNFR2 antibody #088 (antibody, V domains shown) VH: EVQLQESGGGLVQPGGSLNLSCAASGFAFSTYDLSWVRQTPGKRLEWVAYINNGGISTYYSDTVKGRFTITRDNAKNTLYLQMSSLKSEDTAMYYCVRGPFYGSANYFDYWGQGTTVTVSS VL: DILMTQSPASLSLFVGETVTITCRASENIYSNLAWYQQKQGKSPQLLVYDATKLAEGVPSRFSGSESGTQYSLKINSLQSEDFGTYYCQHFWVTPWTFGGGTKLEIK | % to 002# OD (20 nM) | 94.1%
